# systemTested: 12-lipoxygenase (Rattus norvegicus)
# Construct: The platelets were then sonicated at 4° C. and centrifuged at 100,000×g for 30 minutes to obtain a supernatant as a 12-lipoxygenase enzyme solution; from tissue; host or cells: Sprague Dawley rat platelets (from aortic blood), sonicated, 100,000 x g supernatant
# Sequence (F1LQ70 whole entry): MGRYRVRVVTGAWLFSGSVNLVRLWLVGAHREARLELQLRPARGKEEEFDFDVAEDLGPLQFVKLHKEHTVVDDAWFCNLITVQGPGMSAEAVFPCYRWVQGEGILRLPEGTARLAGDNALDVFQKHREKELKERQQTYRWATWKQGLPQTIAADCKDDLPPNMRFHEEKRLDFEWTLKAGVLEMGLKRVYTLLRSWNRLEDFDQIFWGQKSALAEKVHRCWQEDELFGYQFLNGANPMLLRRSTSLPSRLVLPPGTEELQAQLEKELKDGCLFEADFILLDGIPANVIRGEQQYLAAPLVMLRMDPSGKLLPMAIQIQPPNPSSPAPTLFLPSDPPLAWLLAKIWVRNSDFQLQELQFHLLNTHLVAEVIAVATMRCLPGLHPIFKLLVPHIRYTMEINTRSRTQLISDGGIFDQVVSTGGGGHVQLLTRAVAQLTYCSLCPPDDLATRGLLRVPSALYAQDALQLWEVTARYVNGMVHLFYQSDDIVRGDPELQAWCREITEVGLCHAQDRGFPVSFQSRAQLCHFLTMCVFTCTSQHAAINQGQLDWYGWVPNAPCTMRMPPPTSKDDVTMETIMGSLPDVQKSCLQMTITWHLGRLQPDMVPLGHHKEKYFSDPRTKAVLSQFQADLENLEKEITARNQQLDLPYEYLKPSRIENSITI
# testProtocol: 12-lipoxygenase inhibition assay (rat platelet supernatant, arachidonic acid, HPLC of 12-HETE)
# Assay type: biochemical, Sprague Dawley male rat (platelets)
# recordedConditions: 12-lipoxygenase inhibiting activities of deacylated compounds (IC50 values), Test Example 3, Table 11; value belongs to the deacylated compound
pIC50: −log10 of the molar value.
endpoint: pIC50

- O=c1cc(-c2ccccc2)oc2cc(O)c(O)c(O)c12 [Baicalein, 5,6,7-trihydroxyflavone, reference compound]: 7.38
